# test_system: PKBα (Homo sapiens)
# Construct: the full length PKBα and a kinase domain of PKBα with pleckstrin domain (amino acids 1-117) deleted
# Sequence (P31749 118-480 limits assumed): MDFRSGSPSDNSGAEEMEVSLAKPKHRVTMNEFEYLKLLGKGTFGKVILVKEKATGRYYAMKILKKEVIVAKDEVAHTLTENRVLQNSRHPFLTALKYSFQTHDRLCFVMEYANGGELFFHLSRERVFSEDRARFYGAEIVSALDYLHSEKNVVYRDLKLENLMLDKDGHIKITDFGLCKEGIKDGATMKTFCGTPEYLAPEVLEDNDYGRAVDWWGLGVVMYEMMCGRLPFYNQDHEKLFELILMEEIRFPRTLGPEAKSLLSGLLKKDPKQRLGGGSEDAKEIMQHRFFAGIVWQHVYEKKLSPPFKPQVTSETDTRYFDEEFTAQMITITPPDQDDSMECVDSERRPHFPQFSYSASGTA
# assay_procedure: PKB kinase assay (P33-labeled ATP, synthetic peptide substrate, filter plate capture)
# assay_setup: with respect to PKBα
pIC50: −log10 of the molar value. Counter-ions that a name gives are not always drawn.
endpoint_name: pIC50

compound | test_system | endpoint_name | value
O[C@@H]1CCCC[C@H]1CNc1nnc(-c2ccc3cnccc3c2)s1 [Example 17] | PKBα (Homo sapiens) | pIC50 | 6.00 to 7.30
CC1(C)C2CC[C@H](CNc3nnc(-c4ccc5cnccc5c4)s3)C1C2 (some centres unmarked) [Example 15] | PKBα (Homo sapiens) | pIC50 | 6.00 to 7.30
N[C@H](CNc1nnc(-c2cc3c(Cl)cncc3s2)s1)Cc1ccccc1 [Example 12] | PKBα (Homo sapiens) | pIC50 | 6.00 to 7.30
OC(CNc1nnc(-c2ccc3cnccc3c2)s1)Cc1ccc(C(F)(F)F)cc1 (racemic) [Example 30] | PKBα (Homo sapiens) | pIC50 | 6.00 to 7.30
N[C@H](CCc1nnc(-c2ccc3cnc(F)cc3c2)s1)Cc1ccc(C(F)(F)F)cc1 [Example 48] | PKBα (Homo sapiens) | pIC50 | > 7.30
OC[C@H](Nc1nnc(-c2ccc3cnccc3c2)s1)[C@@H](O)c1ccccc1 [Example 16] | PKBα (Homo sapiens) | pIC50 | 5.00 to 6.00
N[C@H](CCc1nnc(-c2ccc3cnccc3c2)s1)Cc1ccc(C(F)(F)F)cc1 [Example 35] | PKBα (Homo sapiens) | pIC50 | > 7.30
CC(Nc1nnc(-c2ccc3cnccc3c2)s1)c1ccco1 (racemic) [Example 22] | PKBα (Homo sapiens) | pIC50 | 5.00 to 6.00
CCC(O)CNc1nnc(-c2ccc3cnccc3c2)s1 (racemic) [Example 23] | PKBα (Homo sapiens) | pIC50 | 5.00 to 6.00
FC(F)(F)c1ccc([C@@H]2CCN[C@@H]2CNc2nnc(-c3ccc4cnccc4c3)s2)cc1 [Example 27] | PKBα (Homo sapiens) | pIC50 | 5.00 to 6.00
N[C@H](CNc1nnc(-c2ccc3[nH]c(=O)oc3c2)s1)Cc1ccc(C(F)(F)F)cc1 [Example 11] | PKBα (Homo sapiens) | pIC50 | > 7.30
N[C@H](CNc1nnc(-c2ccc3cnc(F)cc3c2)s1)Cc1ccc(C(F)(F)F)cc1 [Example 43, trifluoroacetate] | PKBα (Homo sapiens) | pIC50 | > 7.30
c1ccc2[nH]c(CCNc3nnc(-c4ccc5cnccc5c4)s3)nc2c1 [Example 19] | PKBα (Homo sapiens) | pIC50 | 5.00 to 6.00
Oc1cccc(C(O)CNc2nnc(-c3ccc4cnccc4c3)s2)c1 (racemic) [Example 24] | PKBα (Homo sapiens) | pIC50 | 5.00 to 6.00
N[C@H](CNc1nnc(-c2cc3c(Cl)cncc3s2)s1)Cc1ccc(C(F)(F)F)cc1 [Example 9] | PKBα (Homo sapiens) | pIC50 | 6.00 to 7.30
CC(C)n1c(=O)[nH]c2ccc(-c3nnc(NC[C@@H](N)Cc4ccc(C(F)(F)F)cc4)s3)cc21 [Example 5] | PKBα (Homo sapiens) | pIC50 | 5.00 to 6.00
O=C(Nc1nnc(-c2ccc3cnccc3c2)s1)[C@@H]1NCC[C@@H]1c1ccccc1 (racemic) [Example 26] | PKBα (Homo sapiens) | pIC50 | 6.00 to 7.30
